Test: Water solubility quantified by LC-MS/MS
Type: physicochemical
Details: water, LC-MS/MS, mean ± SD
As shown below, each of these compounds has a reported solubility value.
Expressed in µg/mL, but write only the number.

Kindly indicate its recorded solubility. Item: `O=C(COc1ccc(C(=O)c2ccccc2)cc1)NC1CCN(Cc2ccc(OCCOCCOCCOCCOCCO)cc2)CC1`
910

Kindly indicate its recorded solubility. Item: `O=C(COc1ccc(C(=O)c2ccccc2)cc1)NC1CCN(Cc2ccccc2)CC1`
8.99

Value source: paper PMC8327158
